Reported MCH values for the following molecules.
Species on record: Rattus norvegicus
Test: Open TG-GATES - Regimen: Single
Type: toxicity, organism-based, Sprague-Dawley
Design: regimen Single, gender Male, age 6 weeks
Details: in vivo, po, 0 mg/kg, 24 h, tissue Blood, route gavage, dose level Control
Numbers only; they are read as pg.

Consider the worked cases shown below.
Cn1cnc([N+](=O)[O-])c1Sc1ncnc2nc[nH]c12
22.2
Cc1cccc(Nc2cc(Cl)nc(SCC(=O)O)n2)c1C
21.6

Let's switch to this molecule now.
Note to self: MCH recorded for COc1ccc(O)c(C(C)(C)C)c1.COc1ccc(O)cc1C(C)(C)C [BUTYLATED HYDROXYANISOLE] was 20.9
